Data origin: patent US20130224187A1

Target: T1, human C5a (human, UniProt P01031 678-751)
T1 construct: also called hC5a; free human C5a
T1 sequence: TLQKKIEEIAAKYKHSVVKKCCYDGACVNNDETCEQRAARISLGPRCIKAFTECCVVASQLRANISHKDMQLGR
Test: ELISA
MEASUREMENT_TYPE: binding result

# BINDER, MEASUREMENT_TYPE, MEASURED_RESULT
data = [
    ("5an110ME (antibody, V domains shown, Murine) VH: EVQLQQSGPELVKPGASVKISCKASGYTFSDYYYMNWVKKSHGKSLEWIGYIFPKTGGTNYSQRFKGKATLTVDKSSSTAYMELRSLTSEDSAVYYCASGPFAYWGQGTLVTVSA VL: DIVMTQSQKFMSTSVGDRVSVTCKASQNVGTNVAWYQQKPGQSPKALIYSASYRYSGVPDRFTGSGSGTDFTLTISNVQSEDLAEYFCQQYNSYPFTFGSGTKLEIKR", "binding result", "binds"),
    ("5an047 (antibody, V domains shown, Murine) VH: EVQLQQSGPELVKPGASVRISCKASGYTFSDYYYMNWVKKSHGKSLEWIGYIFPKTGGTHYNQRFKGKATLTVDKSSSTAYMELRSLTSEDSAVYYCASGPFAYWGQGTLVTVSA VL: EIVLTQSPAIMSASPGEKVTMTCRASSSVSSSYLHWYQQKSGASPKLWIYSTSNLASGVPARFSGSGSGTSYSLTISSVEAEDAATYYCQQYSGYPLTFGAGTKLELKR", "binding result", "binds"),
]
